B1: F1*; the commonest letter at each place (parent)
chain: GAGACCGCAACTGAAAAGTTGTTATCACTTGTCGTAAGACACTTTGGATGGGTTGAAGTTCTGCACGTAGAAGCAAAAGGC

Variants of: B1
Assay Overview: fraction ligated after 30 min (ligated reads / total reads); higher = more ligase activity
Condition Info: with F1*sub RNA substrate (template-directed ligation), 42 °C
Classify as follows. Reported fraction ligated greater than or equal to 0.8: true (1). Reported fraction ligated below: false (0).

> print(dat)
           mutant  qualitative.label
1       T25A C40T          false (0)
2  G55T A56T A57T          false (0)
3       G34T T49G          false (0)
4       T32G G47A          false (0)
5       C42A G55A           true (1)
